// pIC50 lookup, one value per entry
Test system: LB831-BLC;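 also: growth inhibition of LB831-BLC cells, read out with a cell viability assay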
experimental.details: cells
Format: functional, cell-based
setup.conditions: Homo sapiens
Description: SANGER: Inhibition of human LB831-BLC cell growth in a cell viability assay.
pIC50: −log10 of the molar value.

[
  {
    "compound": "O=c1cc(N2CCOCC2)oc2c(-c3cccc4c3sc3ccccc34)cccc12",
    "qual": "<",
    "pIC50": 5.70
  },
  {
    "compound": "CC(=O)c1c(C)c2cnc(Nc3ccc(N4CCNCC4)cn3)nc2n(C2CCCC2)c1=O [PALBOCICLIB]",
    "qual": "<",
    "pIC50": 5.40
  },
  {
    "compound": "Cn1c(=O)n(-c2ccc(C(C)(C)C#N)cc2)c2c3cc(-c4cnc5ccccc5c4)ccc3ncc21 [DACTOLISIB]",
    "qual": "=",
    "pIC50": 6.92
  },
  {
    "compound": "CC(C)=CC[C@@H](O)C1=CC(=O)c2c(O)ccc(O)c2C1=O [SHIKONIN]",
    "qual": "=",
    "pIC50": 5.72
  },
  {
    "compound": "C[C@]1(c2nc3c(C(N)=O)cccc3[nH]2)CCCN1 [VELIPARIB]",
    "qual": "<",
    "pIC50": 5.30
  }
]

---

System: CMK;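 also: growth inhibition of CMK cells, read out as cell viability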
experimental.details: cells
Format: functional, cell-based
setup.conditions: Homo sapiens
Description: SANGER: Inhibition of human CMK cell growth in a cell viability assay.
Examples of molecules with documented IC50 follow.

[
  {
    "molecule": "CCNc1cc(N[C@H]2CC[C@@H](O)CC2)nc(Nc2ccc3c(ccn3Cc3ccccc3)c2)n1",
    "IC50": "> 5120 nM"
  },
  {
    "molecule": "CO[C@@]12[C@H](COC(N)=O)C3=C(C(=O)C(C)=C(N)C3=O)N1C[C@@H]1N[C@@H]12",
    "IC50": "< 62.5 nM"
  },
  {
    "molecule": "CCn1c(-c2nonc2N)nc2cnc(Oc3cccc(NC(=O)c4ccc(OCCN5CCOCC5)cc4)c3)cc21 [GSK-269962A]",
    "IC50": "1010 nM"
  },
  {
    "molecule": "Cc1n[nH]c2ccc(-c3cncc(OC[C@@H](N)Cc4c[nH]c5ccccc45)c3)cc12",
    "IC50": "275 nM"
  },
  {
    "molecule": "C/C(O)=C(\\C#N)C(=O)Nc1cc(Br)ccc1Br",
    "IC50": "> 16000 nM"
  },
  {
    "molecule": "CC(C)=CC[C@@H](O)C1=CC(=O)c2c(O)ccc(O)c2C1=O",
    "IC50": "352 nM"
  },
  {
    "molecule": "CC(O)(CS(=O)(=O)c1ccc(F)cc1)C(=O)Nc1ccc(C#N)c(C(F)(F)F)c1 (configuration not stated) [BICALUTAMIDE]",
    "IC50": "> 1020 nM"
  }
]

---

System: OE19;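 also: growth inhibition of OE19 cells, measured through a cell viability read-out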
experimental.details: cells
Type: functional, cell-based
setup.conditions: Homo sapiens
Description: SANGER: Inhibition of human OE19 cell growth in a cell viability assay.
pIC50: −log10 of the molar value.

[
  {
    "structure.smiles.string": "C/C=C(/C)C(=O)O[C@H]1C(C)=C2[C@H]([C@@H]1OC(=O)CCCCCCC)[C@@](C)(OC(C)=O)C[C@H](OC(=O)CCC)[C@@]1(O)[C@H]2OC(=O)[C@@]1(C)O",
    "subject.of.test": "OE19",
    "qual": "=",
    "pIC50": 7.44
  },
  {
    "structure.smiles.string": "COc1cc(Nc2c(C#N)cnc3cc(OCCCN4CCN(C)CC4)c(OC)cc23)c(Cl)cc1Cl",
    "subject.of.test": "OE19",
    "qual": "<",
    "pIC50": 5.70
  },
  {
    "structure.smiles.string": "CCNC(=O)c1noc(-c2cc(C(C)C)c(O)cc2O)c1-c1ccc(CN2CCOCC2)cc1",
    "subject.of.test": "OE19",
    "qual": "=",
    "pIC50": 7.71
  }
]
